System: MCF7 breast
Experiment: NCI-60 one-dose screen, 48 h (100 = growth as untreated, 0 = no growth, -100 = all killed)
Conditions: 10 µM unless noted
About 83,000 compounds went through this panel and 20% of them were active in at least one assay; those are over-represented in the sample as a whole.
growth reference
// note: answer is a bare numeric in %

Use these answered entries as a reference point.
COc1cnc2c(c1)C(=O)c1c-2n(CCCN2CCNCC2)c(=O)c2cc(F)ccc12 | 11.7
O=C(N/N=C/c1cccc(O)c1O)c1ccccc1 | 3.07
Nc1nc(Nc2ccccc2SSc2ccccc2Nc2nc(N)nc(-c3ccc(I)cc3)n2)nc(-c2ccc(I)cc2)n1 | 76
COc1cc(/C=C/C(=O)c2c(C)n([O-])c3ccccc3[n+]2=O)cc(OC)c1OC | 20.8
CC1C(C)N(C(=O)CCl)c2ccccc2N1C(=O)CCl (stereo unspecified) | -49.4

Query :: growth lookup needed for `O=C1NC(=O)/C(=C\c2ccco2)S1` , thanks.
Result :: 104

src = PubChem BioAssay (NCI)
